- testMethodNotes: Test on the solubility in a simulated body fluid
- Format: physicochemical
- assayContext: 0.01 M PBS pH 7.4, 37° C., 6 h
- Description: Test on the Solubility in a Simulated Body Fluid The concentration of the drug dissolved in the PBS buffered solution was determined with an HPLC-a method.
attributeMeasured: Compound concentration: DTTA (µM)
Give the value in µM but do not write µM after it.

// solved cases for Compound concentration: DTTA follow
[[record]]
compound = "CCCCN1CCCCC1C(=O)Nc1c(C)cccc1C.CCCCN1CCCCC1C(=O)Nc1c(C)cccc1C.Cc1ccc(C(=O)OC(C(=O)O)C(OC(=O)c2ccc(C)cc2)C(=O)O)cc1 (stereo not shown) [Preparation Example 4, bis(bupivacaine) di-p-toluoyl tartarate]"
attributemeasured = "Compound concentration: DTTA"
unitdescriptor = "µM"
measured = 5312

[[record]]
compound = "CCCN1CCCC[C@H]1C(=O)Nc1c(C)cccc1C.CCCN1CCCC[C@H]1C(=O)Nc1c(C)cccc1C.Cc1ccc(C(=O)OC(C(=O)O)C(OC(=O)c2ccc(C)cc2)C(=O)O)cc1 (stereo not shown) [Preparation Example 6, bis(ropivacaine) di-p-toluoyl tartarate]"
attributemeasured = "Compound concentration: DTTA"
unitdescriptor = "µM"
measured = 19617.2

[[record]]
compound = "CCCN1CCCC[C@H]1C(=O)Nc1c(C)cccc1C.Cc1ccc(C(=O)OC(C(=O)O)C(OC(=O)c2ccc(C)cc2)C(=O)O)cc1 (stereo not shown) [Preparation Example 5, mono(ropivacaine) di-p-toluoyl tartarate]"
attributemeasured = "Compound concentration: DTTA"
unitdescriptor = "µM"
measured = 6971.8


Now for a further compound.
Reported Compound concentration: DTTA for CCCCN1CCCCC1C(=O)Nc1c(C)cccc1C.Cc1ccc(C(=O)OC(C(=O)O)C(OC(=O)c2ccc(C)cc2)C(=O)O)cc1 (stereo not shown) [Preparation Example 3, mono(bupivacaine) di-p-toluoyl tartarate] was 7211.7
